target: Replicase polyprotein 1a (Severe acute respiratory syndrome-related coronavirus)
pKi: −log10 of the molar value.
1 (yes) means recorded pKi is 5 or above; 0 (no) means it is below 5.

COMPOUND_STRUCTURE | LABEL_VALUE
O=C(N[C@@H](Cc1ccccc1)C(=O)N[C@@H](C[C@@H]1CCNC1=O)C(=O)c1nc2ccccc2s1)OCc1ccccc1 | 1 (yes)
CC(C)C[C@H](NC(=O)OC(C)(C)C)C(=O)N[C@@H](C[C@@H]1CCNC1=O)C(=O)c1nc2ccccc2s1 | 0 (no)
CC(C)C[C@H](NC(=O)/C=C/c1ccccc1)C(=O)N[C@@H](C[C@@H]1CCNC1=O)C(=O)c1nc2ccccc2s1 | 1 (yes)
CC(C)C[C@H](NC(=O)COc1cccc(N(C)C)c1)C(=O)N[C@@H](C[C@@H]1CCNC1=O)C(=O)c1nc2ccccc2s1 | 1 (yes)

IN: Could you verify whether the entry CC(C)C[C@H](NC(=O)Cc1ccccc1)C(=O)N[C@@H](C[C@@H]1CCNC1=O)C(=O)c1nc2ccccc2s1 shows pKi of no less than 5?
OUT: 1 (yes)
